IC50 values by entry
- Target Under Test: bromodomain protein BRD4 BD2 (Homo sapiens)
- Construct: The proteins BRD4 BD1/BD2 used in the experiment were purchased from Active Motif Company (Cat. No. 31380/31446)
- Procedure Details: HTRF in vitro assay, inhibitory activity against BRD4 BD2
- Assay Setup: BRD4(2) 30 nM in final system

Compound | Target Under Test | IC50
CCNC(=O)c1cc2c(-c3cc(C(C)=O)c4cccnc4c3OC)cn(C)c(=O)c2[nH]1 | bromodomain protein BRD4 BD2 (Homo sapiens) | 10 to 100 nM
CC(c1ccc(F)cc1)c1cn(C)c(=O)c2[nH]c(-c3cnn(C(CO)CN4CCN(C)CC4)c3)cc12 (centres unmarked) | bromodomain protein BRD4 BD2 (Homo sapiens) | ≤ 10 nM
Cc1ccc(C2CCC(=O)N2c2cn(C)c(=O)c3[nH]c(C(=O)Nc4cn[nH]c4)cc23)cc1 (centres unmarked) | bromodomain protein BRD4 BD2 (Homo sapiens) | 10 to 100 nM
Cc1ccc(C2c3ccccc3C(=O)N2c2cn(C)c(=O)c3[nH]c(C(=O)Nc4cn[nH]c4)cc23)cc1 (centres unmarked) | bromodomain protein BRD4 BD2 (Homo sapiens) | 10 to 100 nM
CCNC(=O)c1cc2c(C(C)c3ccccc3)cn(C)c(=O)c2[nH]1 (centres unmarked) | bromodomain protein BRD4 BD2 (Homo sapiens) | ≤ 10 nM
CC(c1ccccc1)c1cn(C)c(=O)c2c(C(=O)O)c(-c3cnn(C)c3)oc12 (centres unmarked) | bromodomain protein BRD4 BD2 (Homo sapiens) | 10 to 100 nM
CCNC(=O)c1cc2c(-c3nc4ncccc4n3-c3c(C)cccc3C)cn(C)c(=O)c2[nH]1 | bromodomain protein BRD4 BD2 (Homo sapiens) | ≤ 10 nM
Cn1cc(-c2cc3c(C(O)c4ccccc4)cn(C)c(=O)c3[nH]2)cn1 (centres unmarked) | bromodomain protein BRD4 BD2 (Homo sapiens) | 10 to 100 nM

###

- Target Under Test: bromodomain protein BRD4 BD2 (Homo sapiens, UniProt O60885)
- Construct: The proteins BRD4 BD1/BD2 used in the experiment were purchased from Active Motif Company (Cat. No. 31380/31446); purchased Active Motif 31446
- Procedure Details: HTRF in vitro assay, inhibitory activity against BRD4 BD2
- Type: binding
- Assay Setup: BRD4(2) 30 nM in final system

Compound | IC50
Cc1ccc(-c2cn(C)nc2-c2cn(C)c(=O)c3[nH]c(C(=O)Nc4cn[nH]c4)cc23)cc1 [Compound A56] | 10 to 100 nM
Cc1cc(F)cc(C)c1-n1c(-c2cn(C)c(=O)c3[nH]c(C(=O)Nc4ccn(C)n4)cc23)nc2ncccc21 [Compound A52] | ≤ 10 nM
CCNC(=O)c1cc2c(/C(=C/c3ccccc3)c3ccccc3)cn(C)c(=O)c2[nH]1 [Compound A24] | 10 to 100 nM
CC(c1ccccc1)c1cn(C)c(=O)c2cc(-c3n[nH]cc3N)oc12 (centres unmarked) [Compound A58] | ≤ 10 nM
CC(c1ccc(O)cc1)c1cn(C)c(=O)c2[nH]c(-c3cnn(C4COC4)c3)cc12 (centres unmarked) [Compound A72] | 10 to 100 nM
CC(c1ccc(F)cc1)c1cn(C)c(=O)c2[nH]c(-c3cn[nH]c3)cc12 (centres unmarked) [Compound A19] | ≤ 10 nM
CCNC(=O)n1cc2c(Cc3ccccc3)cn(C)c(=O)c2c1 [Compound A3] | 10 to 100 nM
CCNC(=O)c1cc2c(C(C)c3ccc4ccccc4c3)cn(C)c(=O)c2[nH]1 (centres unmarked) [Compound A25] | 10 to 100 nM
